Where do these numbers come from? They come from patent US20100256043A1.

Assay: Cell viability (dye uptake) in the HBV assay
Format: cell-based
Conditions: human, HepG2-2.2.15 cells, peptide 10 micrograms per ml
Residues, ends and D or L forms follow the SMILES beside them.
measured quantity: viability at 144 h, 10 micrograms per ml
The answer consists of two parts: a number and, after it, its unit.

Lookup: May I ask what viability at 144 h, 10 micrograms per ml has been recorded for CC[C@H](C)[C@H](NC(=O)[C@H](C)NC(=O)CNC(=O)[C@H](CCCNC(=N)N)NC(=O)[C@H](C)NC(=O)[C@H](CC(C)C)NC(=O)[C@H](CCC(=O)O)NC(=O)[C@H](CC(C)C)NC(=O)[C@H](C)NC(=O)[C@@H](N)CCC(=O)O)C(=O)N[C@@H](Cc1ccccc1)C(=O)N[C@@H](CCC(N)=O)C(=O)N[C@@H](C)C(N)=O [BINP] (H-EALELARGAIFQA-NH2) ?
Found: 96.9%
